Source of measurements: ChEMBL document CHEMBL1201862

For each entry below, report its GI50 value.
test system: XF498; assay: NCI tumour cell line growth inhibition, 48 h
Calls of active or inactive are those of the source. Cut-off read from the data, not from the text of the source: active = GI50 up to about 1.1 µM and inactive = higher.

Some entries whose results are on file:
COc1ccc(C(Cc2cc(OC)c(OC)c(OC)c2)C(=O)O)cc1 (stereo not given)	40.5 µM (inactive)
O=C(O)C12CCCCC1CCCC2 (stereo not given)	> 100 µM (inactive)
COC(OC)[C@@H](C)[C@H](O)[C@](C)(O)C1OC(C)(C)OC(C(C)C=C(C)C)C1C (stereo not given in full)	> 100 µM (inactive)

Okay, here is my list. What is GI50 for each of these?
1. O=S(O)CCCSSCCCCSSCCCS(=O)O
2. O=c1[nH]c(=O)n(C2CC(O)C(CO)O2)cc1C(OCC(F)(F)F)OCC(F)(F)F (stereo not given)
3. O=C(NC(=O)c1c(Cl)nc2sccn12)Nc1ccc(Cl)cc1

A)
["> 100 µM (inactive)", "> 100 µM (inactive)", "17.9 µM (inactive)"]
